# System Tested: FhGALE (Fasciola hepatica UDP-galactose 4’-epimerase) (Fasciola hepatica)
# Assay Remarks: biochemical
# Assay type: biochemical
# Settings: read-out: FhGALE IC50; pH 7.5
Reported Endpoint: IC50 (nM)
One number for each entry, in nM.

>>> result_value("CC(C)CC(NC(=O)OCc1ccccc1)C(=O)NC(Cc1c[nH]c2ccccc12)C(=O)O (centres unmarked)")
100

// next item, IC50 requested
Briefly, IC50 measured for O=C1NC(=O)C(F)C(C(=O)O)N1 (centres unmarked) : 30

---

Sequence of the target: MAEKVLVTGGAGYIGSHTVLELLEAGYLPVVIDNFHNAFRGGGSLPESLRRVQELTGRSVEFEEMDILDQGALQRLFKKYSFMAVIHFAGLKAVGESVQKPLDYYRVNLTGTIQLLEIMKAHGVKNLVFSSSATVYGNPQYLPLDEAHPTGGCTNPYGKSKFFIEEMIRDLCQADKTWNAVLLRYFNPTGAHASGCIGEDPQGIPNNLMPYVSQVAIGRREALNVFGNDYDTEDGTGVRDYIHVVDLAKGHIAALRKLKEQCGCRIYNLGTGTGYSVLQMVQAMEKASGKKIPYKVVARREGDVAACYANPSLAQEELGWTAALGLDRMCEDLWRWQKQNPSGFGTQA
For each entry below, report its IC50 value.
Answers are plain numbers, in nM.

// below: answered compounds
>>> result_value("CCOc1ccc(NC(=O)c2cc3ccccc3cc2O)cc1")
45
>>> result_value("CC1(C)OC2C(CO)OC(n3cnc4c(=S)nc[nH]c43)C2O1 (stereo not shown)")
6.1
>>> result_value("Cn1c(=O)c2[nH]c(COc3ccc(C(C)(C)C)cc3)nc2n(C)c1=O")
9500

// next item, IC50 requested
Briefly, IC50 measured for CC(C)c1nc2c([nH]1)c(=O)n(C)c(=O)n2C : 13

From: paper PMC4515351
